Data origin: the supplement of paper PMC9233669

Test system: biotinyl-Leu-oxazolone
Assay protocol: self-aminoacylation, catalytic enhancement (BLO) (fold over background); higher = more active; k-Seq, kA / k0A0; sequences stand for … in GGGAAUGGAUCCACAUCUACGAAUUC…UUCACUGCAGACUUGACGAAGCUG
This sample holds only a part of the variants without activity.
Assay metric: self-aminoacylation
Give bare numbers.

1. UCACACUUCAAGCAAACGGUC [Fam1B.1 aminoacylation ribozyme variant]; 0.506

For every listed record, write down its self-aminoacylation.
1. CCACACUUCAAGCAUUCGAUC [Fam1B.1 aminoacylation ribozyme variant]
2. GUUCACCUAGGUCAUCGAGUG [Fam2.2 aminoacylation ribozyme variant]
3. AAACUUGCUAAUAGUCGCAAG [Fam3.1 aminoacylation ribozyme variant]
4. AAGUUUGCUAAGAGUUGCAAG [Fam3.1 aminoacylation ribozyme variant]
5. AAAUUUGCUAAUAGUCGCAAA [Fam3.1 aminoacylation ribozyme variant]
6. AUUACCCAGGUCAUCGAUUGA [Fam2.1 aminoacylation ribozyme variant]
7. CUACUUUAAACAAUAGGUCUG [Fam1A.1 aminoacylation ribozyme variant]

Reply |
0.577
15.7
1.29
0.86
3.17
0.826
0.841

Report self-aminoacylation for each item below.
1. AUUCACCUCGGGCAUCGGGUG [Fam2.2 aminoacylation ribozyme variant]
2. CUACUUCAAAGAAUCAGUCUG [Fam1A.1 aminoacylation ribozyme variant]
3. CCCCACUUCAGGCAAUCGGUC [Fam1B.1 aminoacylation ribozyme variant]
4. CCAAACUUCAAGAAAUCGGUC [Fam1B.1 aminoacylation ribozyme variant]
5. CUACUUCAAACCAUAGGUCUG [Fam1A.1 aminoacylation ribozyme variant]
6. CCACACUUCAAUCAAUAGGUC [Fam1B.1 aminoacylation ribozyme variant]
7. AUUACCCUGCUCAUCCAGUGA [Fam2.1 aminoacylation ribozyme variant]
8. AAGUUUCGUAAUAGUCGCAAG [Fam3.1 aminoacylation ribozyme variant]

Reply |
1. 6.03
2. 0.68
3. 2.63
4. 0.986
5. 0.615
6. 0.517
7. 6.26
8. 1.78

I need self-aminoacylation for every entry listed below, if you could help.
1. AAGUUAGCUAAUAGUCGCAAA [Fam3.1 aminoacylation ribozyme variant]
2. AAGUUUGCUAAUAGCCGUAAG [Fam3.1 aminoacylation ribozyme variant]
3. AUUCAUCUAGGUCACCGGGUG [Fam2.2 aminoacylation ribozyme variant]
4. AUUACCCUGGUCCCCGAGUGA [Fam2.1 aminoacylation ribozyme variant]
5. CCUCACUUCAAGGAAUCGGUC [Fam1B.1 aminoacylation ribozyme variant]
6. AUUAGCCUGGUCAUCGAGCGA [Fam2.1 aminoacylation ribozyme variant]
7. CCUCACUCCAAGCAAUCGGUC [Fam1B.1 aminoacylation ribozyme variant]

Reply |
1: 1.64; 2: 0.898; 3: 6.82; 4: 15.6; 5: 0.936; 6: 2.59; 7: 0.915
